Parameter: pest or weed control at 70 g/ha. Scope: all listed entries.
Tested on: common poppy (PAPRH)
Assay: Postemergence greenhouse trial, % visual injury on common poppy
Format: in vivo, Papaver rhoeas
Conditions: Papaver rhoeas, post-emergence; PAPRH; 70 g/ha, applied alone; read-out: % visual injury, Ob
MEASURED ENDPOINT: pest or weed control at 70 g/ha (%)

> print(dat)
                                smiles.code  unit.abbreviation  val
1    Nc1c(F)c(-c2ccc3scnc3c2)nc(C(=O)O)c1Cl                  %  100
2  Nc1c(F)c(-c2ccc3cc[nH]c3c2)nc(C(=O)O)c1Cl                  %  100
3    Nc1c(F)c(-c2ccc3ccoc3c2)nc(C(=O)O)c1Cl                  %   95
4       COc1c(N)nc(-c2ccc3sccc3c2)nc1C(=O)O                  %   95
5   COC(=O)c1nc(-c2ccc3sccc3c2)c(F)c(N)c1Cl                  %   95

----------
% visual injury, Ob: recorded values
Tested on: spring wheat (TRZAS)
Assay: Postemergence greenhouse trial, % visual injury on spring wheat
Format: in vivo, Triticum aestivum
Conditions: TRZAS; compound 35 g/ha, CQC-m 0
Experimental: Seeds of the desired test plant species were planted in Sun Gro MetroMix® 306 planting mixture, which typically has a pH of 6.0 to 6.8 and an organic matter content of about 30 percent, in plastic pots with a surface area of 103.2 square centimeters (cm^2). […] The safener cloquintocet-mexyl was combined with compound 1, compound 2, compound 4, compound 5, and compound 6, and applied to corn/maize (ZEAMX) and spring wheat (TRZAS) and the phytotoxicity of the herbicidal compositions was measured. […]
MEASURED ENDPOINT: % visual injury, Ob

> print(dat)
                                   molecule  val
1  CCCCOC(=O)c1nc(-c2ccc3cc[nH]c3c2F)c(F)c(N)c1Cl [compound 9]  50%
2  CO/C=N/c1c(F)c(-c2ccc3cc[nH]c3c2F)nc(C(=O)OC)c1Cl [compound 10]  60%
3  COC(=O)c1nc(-c2ccc3cc[nH]c3c2F)c(F)c(N)c1OC [compound 12]  53%
4  COC(=O)c1nc(-c2ccc3cc[nH]c3c2F)c(F)c(/N=C/N(C)C)c1Cl [compound 11]  20%

----------
Reported % visual injury, Ob by item:
Tested on: spring barley (HORVS)
Experiment: Postemergence greenhouse trial, % visual injury on spring barley
Format: in vivo, Hordeum vulgare
Settings: HORVS; compound 70 g/ha, CQC-m 0
MEASURED ENDPOINT: % visual injury, Ob (%)

> print(dat)
                                smiles.code    measured.endpoint  val
1  COC(=O)c1nc(-c2ccc3cc[nH]c3c2F)c(F)c(/N=C/N(C)C)c1Cl  % visual injury, Ob   40
2  CCCCOC(=O)c1nc(-c2ccc3cc[nH]c3c2F)c(F)c(N)c1Cl  % visual injury, Ob   50
3  COC(=O)c1nc(-c2ccc3cc[nH]c3c2F)c(F)c(N)c1OC  % visual injury, Ob   60
4  CO/C=N/c1c(F)c(-c2ccc3cc[nH]c3c2F)nc(C(=O)OC)c1Cl  % visual injury, Ob   40
